// provenance: patent US20260365688A1

test.details: Second-order rate constant of IEDDA reaction of TCO with tetrazine 2.1 in MeCN by UV-Vis
Type: physicochemical
condition.label: activator 2.1; in MeCN at 20 °C; second-order conditions
Label criterion met when Rate constants k2 >= 7 M⁻¹ s⁻¹; otherwise criterion not met.

Past entries and their recorded results:
[[record]]
molecule = "COC(=O)[C@@H]1[C@@H]2C/C=C/[C@H](O)CC[C@@H]21"
class = "criterion not met"

[[record]]
molecule = "COC(=O)[C@H]1[C@H]2CCC/C=C/[C@@H](O)[C@H]21 [Compound 1.16b]"
class = "criterion not met"

[[record]]
molecule = "O=C1O[C@@H]2C=CCCC[C@@H]3[C@H]1[C@@H]32 (stereo in doubt) [Compound 1.17b]"
class = "criterion met"

[[record]]
molecule = "O=C1O[C@@H]2C=CCCC[C@@H]3[C@H]1[C@@H]32 (stereo in doubt) [Compound 1.17a]"
class = "criterion met"

[[record]]
molecule = "CN(Cc1ccccc1)C(=O)O[C@@H]1/C=C/CCC[C@@H]2[C@H](C(=O)ON3C(=O)CCC3=O)[C@@H]21"
class = "criterion met"


Okay, next one:
## Input Does CN(Cc1ccccc1)C(=O)O[C@H]1/C=C/C[C@@H]2[C@H](CC1)[C@@H]2C(=O)ON1C(=O)CCC1=O have a reported Rate constants k2 of at least 7 M⁻¹ s⁻¹?
## Output criterion not met
